Would you kindly list TGI for each of these molecules?
tested on: HCT-15 colon; assay: NCI tumour cell line growth inhibition, 48 h
Give bare numbers, in µM.

molecule="O=C(/C=C/C12c3ccccc3C(c3ccccc31)C1C(=O)N(c3ccc(Cl)cc3)C(=O)C12)c1ccccn1 (stereo not drawn)" target_entity="HCT-15 colon" measurement_name=TGI measure_unit=µM value_reported=0.66

Record COc1ccc2c(c1)Oc1cc(O)ccc1[C@H]2c1ccccc1C(=O)NC(C)c1ccccc1 (stereo partly drawn) , field TGI: 35.5

====

system: SNB-19 CNS; assay: NCI tumour cell line growth inhibition, 48 h
Measurement Name: TGI

compound=N#Cc1c(N)oc(-c2ccc([N+](=O)[O-])cc2)c1C#N value_reported="91.6 µM"
compound=Cc1ccc(Cc2cc(N3CCN(c4cccc(Cl)c4)CC3)nnc2C)cc1 value_reported="> 100 µM"
compound=O=C(CN1CCCC1=O)CS(=O)(=O)c1ccccc1 value_reported="> 100 µM"
compound=CN(C)C(=O)Oc1c(Br)cc(Br)cc1C(=O)OCc1ccccc1 value_reported="> 100 µM"
compound=C[C@H](c1ccc(F)cc1CCCC(=O)O)N(c1cc(F)ccc1F)S(=O)(=O)c1ccc(Cl)cc1 value_reported="> 100 µM"
compound=O=[N+]([O-])c1ccc(/C=C/c2nc3ccc(Cl)cc3[nH]2)cc1 value_reported="> 100 µM"
compound="O=C1/C(=C/c2ccc(O)cc2)CCCC1CN1CCCCC1 (stereo not drawn)" value_reported="31.8 µM"
compound="CC(=O)C(=O)NC1/C=C(C)\\C=C/C(O)C/C=C(C)\\C=C/C(O)CC2OC(=O)C1(C)C(=O)C2C (stereo not drawn)" value_reported="> 100 µM"
compound=C[C@@]1(CCCCCCCCCCc2ccccc2)C[C@@]2(C)OC(=O)C[C@H]2OO1 value_reported="5.24 µM"
compound="CCc1ccccc1NC(=O)C(=O)C(C#N)c1ccccc1Cl (stereo not drawn)" value_reported="> 100 µM"

State recorded TGI for all listed compounds.
1. Nc1nc(NCCOCP(=O)(O)O)c([N+](=O)[O-])c(=O)[nH]1
2. CC(C)NC(=O)OCc1c(COC(=O)NC(C)C)c(-c2ccc[n+](COC(=O)Cc3ccccc3)c2)n2c1CCC2

["> 100 µM", "> 100 µM"]

State recorded TGI for all listed compounds.
1. O=C(CN1CCN(Cc2ccccc2Cl)CC1)NC1CC(=O)c2c(Br)sc(Br)c21 (stereo not drawn)
2. Cc1cc2c(c(C(=O)NCC(=O)N[C@@H](C)C(=O)OCc3ccccc3)c1)Oc1c(cc(C)cc1C(=O)NCC(=O)N[C@@H](C)C(=O)OCc1ccccc1)S2

1: 33.1 µM; 2: > 100 µM

State recorded TGI for all listed compounds.
1. COC(=O)[C@H]1COC(=S)N1C(=O)[C@@H](C)[C@H](O)C(C)C
2. CC(=O)c1ccccc1NC(=O)C(=O)C(C(=O)c1ccc2ccccc2c1)C1OC(=O)c2ccccc21 (stereo not drawn)
3. NC1N=Nc2ccccc21 (stereo not drawn)
4. O=[N+]([O-])c1cc(-c2nc(=S)[nH][nH]2)ccc1O

> 100 µM
35.3 µM
> 100 µM
> 100 µM

====

tested on: NCI-H522 lung; assay: NCI tumour cell line growth inhibition, 48 h
Where a SMILES comes first, the peptide text is derived from it. The star is where a group is joined. Boc = CC(C)(C)OC(=O)*
Would you kindly list TGI for each of these compounds?

compound="COC(=O)C(Cc1ccccc1)NC(=O)C(CS)NC(=O)OC(C)(C)C (stereo not drawn) (Boc-Cys-Phe-OMe; configuration not given here)" measurement_name=TGI value_reported="> 100 µM"
compound=COc1ccccc1NC(=S)N=Nc1c(O)[nH]c2ccccc12 measurement_name=TGI value_reported="> 100 µM"
compound=C/C(CCC(=O)O)=N/Nc1ccc([N+](=O)[O-])cc1 measurement_name=TGI value_reported="> 100 µM"

State recorded TGI for all listed compounds.
1. COC(=O)c1cc(NC(=O)c2cc(NC(=O)c3cc([N+](=O)[O-])n(C)c3)cn2C)cn1C
2. CC(=O)C(=O)NC1/C=C(C)\C=C/C(O)C/C=C(C)\C=C/C(O)CC2OC(=O)C1(C)C(=O)C2C (stereo not given)
3. CSc1ncc2c(n1)-c1ccccc1OC2N1CCOCC1 (stereo not given)

> 100 µM
> 100 µM
> 100 µM
